assay: Pharmacokinetic evaluation following intravenous and oral administration in rats; format: in vivo; settings: male, Sprague-Dawley, plasma; rat; non-compartmental analysis; read-out: In vivo Clearance (converted)
assay.readout: clearance (mL/min/kg)

Consider the worked cases shown below.
So what's the measured clearance for this one? Cc1cc(/C=C/C(F)(F)F)ccc1C(=O)Nc1ccc2c(c1)OCCN2 [Compound 118] 17.7

Can you look up the measured clearance of Cc1cc(/C=C/C(F)(F)F)ccc1C(=O)Nc1cnc2[nH]ccc2c1 [Compound 230] for me? 15.3

State the recorded clearance for this entry: Cc1cc(/C=C/C(F)(F)F)ccc1C(=O)Nc1cnc2cc(CO)cnc2c1 [Compound 317] 16.5

[1] CC(C)(C)C#Cc1ccc(C(=O)Nc2ccc3c(c2)OCC(CO)N3)c(Cl)c1 (centres unmarked) [Compound 158]
[2] Cc1cc(/C=C/C(F)(F)F)ccc1C(=O)Nc1ccc2c(c1)OCC(CO)N2 (centres unmarked) [Compound 131]
[3] Cc1cc(/C=C/C(F)(F)F)ccc1C(=O)Nc1cnc2scnc2c1 [Compound 415]
Rank order required: clearance, descending. Give the order by naming the labels one after another as requested. 2, 1, 3
(2: 21.6 mL/min/kg, 1: 13 mL/min/kg, 3: 0.833 mL/min/kg)

###

biological target: VR1 (Homo sapiens); assay: Calcium uptake assay, low pH (proton) agonist; format: cell-based; set-up: expressed in transfected cells; host or cells: T-REx HEK 293 (Invitrogen), pcDNA5/TO vector; settings: HEK293; 0.3 μM compound; low pH (protons) as agonist; HEK 293 cells expressing hVR1; read-out: Low pH % Inhib. @ 0.3 μM
Sequence (Q8NER1 whole entry): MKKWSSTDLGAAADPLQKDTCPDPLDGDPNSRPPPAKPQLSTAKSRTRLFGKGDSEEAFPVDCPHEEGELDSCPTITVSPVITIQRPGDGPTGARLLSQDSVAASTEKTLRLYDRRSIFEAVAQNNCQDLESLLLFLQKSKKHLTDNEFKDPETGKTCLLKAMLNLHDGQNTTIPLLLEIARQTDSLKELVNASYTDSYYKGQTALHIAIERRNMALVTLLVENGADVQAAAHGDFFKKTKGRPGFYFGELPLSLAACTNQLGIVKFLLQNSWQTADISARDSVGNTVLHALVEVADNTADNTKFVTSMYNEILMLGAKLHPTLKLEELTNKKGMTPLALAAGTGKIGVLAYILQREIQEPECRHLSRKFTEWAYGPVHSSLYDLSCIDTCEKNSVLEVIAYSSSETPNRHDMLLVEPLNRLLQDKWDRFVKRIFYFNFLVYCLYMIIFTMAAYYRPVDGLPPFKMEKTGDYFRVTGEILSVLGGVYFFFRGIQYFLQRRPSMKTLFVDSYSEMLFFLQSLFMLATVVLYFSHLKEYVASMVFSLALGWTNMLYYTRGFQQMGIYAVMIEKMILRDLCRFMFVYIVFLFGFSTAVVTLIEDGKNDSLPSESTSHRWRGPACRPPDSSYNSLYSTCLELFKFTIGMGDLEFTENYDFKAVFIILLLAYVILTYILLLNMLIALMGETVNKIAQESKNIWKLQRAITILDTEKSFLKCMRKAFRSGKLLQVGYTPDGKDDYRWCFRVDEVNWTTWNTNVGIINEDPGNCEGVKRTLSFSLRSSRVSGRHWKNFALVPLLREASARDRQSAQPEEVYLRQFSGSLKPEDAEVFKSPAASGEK
assay.readout: inhibition at 0.3 µM (%)

Requested read-out: inhibition at 0.3 µM. Entry: "Cc1cc(/C=C/C(F)(F)F)ccc1C(=O)Nc1ccc2c(c1)N(C(=O)C(C)(C)C)CC2" 14

[A] Cc1cc(/C=C/C(F)(F)F)ccc1C(=O)Nc1ccc2c(c1)N(C(=O)CO)CC2
[B] Cc1cc(/C=C/C(F)(F)F)ccc1C(=O)Nc1ccc2c(c1)N(C(=O)C1CC1)CC2
[C] Cc1cc(/C=C/C(F)(F)F)ccc1C(=O)Nc1ccc2c(c1)C(=O)N(CCO)C2=O
[D] Cc1cc(/C=C/C(F)(F)F)ccc1C(=O)Nc1cnc2cc(C(C)(C)O)cnc2c1
[E] Cc1cc(/C=C/C(F)(F)F)ccc1C(=O)Nc1ccc2ccc(O)nc2n1
Arrange the 5 compounds from largest to smallest inhibition at 0.3 µM. Lab note: record answer as labels in requested order. A, E, C, D, B

[A] Cc1cc(C#CC(C)(C)C)ccc1C(=O)Nc1cccc2c(Cl)nccc12
[B] Cc1cc(/C=C/C(F)(F)F)ccc1C(=O)Nc1ccc2cc(C(C)O)cnc2c1 (centres unmarked)
Compare A and B and name the one whose reported inhibition at 0.3 µM is smaller. Your choice should be expressed through its label. A

###

assay: Pharmacokinetic evaluation following intravenous and oral administration in rats; assay type: in vivo; conditions: male, Sprague-Dawley, plasma; rat; AUCinf (PO)/AUCinf (IV), dose normalized; PO 5 mg/kg; read-out: Oral Bioavailability F (%)
assay.readout: bioavailability (%)

[A] Cc1cc(/C=C/C(F)(F)F)ccc1C(=O)Nc1ccc2cc(CO)cnc2c1 [Compound 228]
[B] Cc1nc2cc(NC(=O)c3ccc(C#CC(C)(C)C)cc3C)ccc2s1 [Compound 162]
bioavailability comparison. Which is larger, A or B ? Select an item and report its label. A
(A: 39%, B: 2%)

[a] Cc1cc(/C=C/C(F)(F)F)ccc1C(=O)Nc1cccc2ccc(O)cc12 [Compound 302]
[b] Cc1cc(C#CC2CCCC2)ccc1C(=O)Nc1ccc2c(c1)OCC(CO)N2 (centres unmarked) [Compound 125]
Among a and b , whose measured bioavailability is the smaller figure? Which one? Tell me its label. a

[P] O=C(Nc1ccc2c(c1)OCC(CO)N2)c1ccc(/C=C/C(F)(F)F)cc1F (centres unmarked) [Compound 144]
[Q] Cc1cc(/C=C/C(F)(F)F)ccc1C(=O)Nc1cccc2c1CC(O)CC2 (racemic) [Compound 309]
[R] Cc1cc(/C=C/C(F)(F)F)ccc1C(=O)Nc1cnc2[nH]ccc2c1 [Compound 230]
Task field, ranking: reported bioavailability, descending order. Use the labels to give the ranking in the order requested. P, Q, R

Provenance of the data: patent US20100004222A1
